test: Bidirectional transport of indole alkaloids from GE and GM extracts across Caco-2 cells monolayer; type: in vitro ADME, Human; details: human, Caco-2, GM without inhibitor; read-out: efflux ratio γ (Papp BL-AP / Papp AP-BL)
ENDPOINT: efflux ratio

Query: Field request: efflux ratio | item: CCC1=NC2CC3(C(=O)N(OC)c4ccccc43)C3OCC2C1C3O (stereo not shown)
Response: > 2

Query: For C=CC12CN(C)C3C4COC(CC41)C1(C(=O)N(OC)c4ccccc41)C32 (stereo not shown) , what is its reported efflux ratio?
Response: > 2

Query: Fill in: efflux ratio of C/C=C1\CN(C)[C@H]2C[C@@]3(C(=O)N(OC)c4ccccc43)[C@H]3C[C@@H]1[C@@H]2CO3 is ___
Response: 1.46

Query: Name the recorded efflux ratio for C=C[C@@]12CN(C)[C@H]3C[C@]14C(=Nc1ccccc14)[C@H]1C[C@@H]2[C@@H]3CO1 .
Response: ~1
